readout.label: melting point

                                   compound     meas_value
0  C=Cc1ccc(C(=O)NC(C#N)n2cccn2)cc1 (stereo not drawn)  159 to 161 °C
1  COc1cc(Cc2cnc(NCCSCc3csc(CN(C)C)n3)[nH]c2=O)ccn1    79 to 80 °C

Batch of 3 compounds: report melting point for each.
1. CC(C)(C)c1ccc(-c2ccc(C(C)(C)C)c(O)c2)cc1
2. O=[N+]([O-])c1cc(C(F)(F)F)c(Cl)cc1NCP(=O)(O)O
3. O=C1C(c2cccc(Br)c2)n2cncc2CN1Cc1ccsc1 (stereo not drawn)

[reply]
1: 86 to 87 °C; 2: 207 °C; 3: 43 to 45 °C

Batch of 5 compounds: report melting point for each.
1. CC1CCc2ccc(OCC(O)CCl)cc2O1 (stereo not drawn)
2. CNc1cc(NS(=O)(=O)c2cccc(Cl)c2)nc(NC)n1
3. CCc1[nH]n(C2CCCC2)c2nc(-c3ccc(OC)c(OCCN4CCOCC4)c3)nc(=O)c1-2
4. COC(=O)Nc1ccccc1
5. CC1Nc2cnccc2N(C)n2cccc21 (stereo not drawn)

[reply]
1: 70 to 72 °C; 2: 167 to 168 °C; 3: 205 to 206 °C; 4: 45 to 46 °C; 5: 157 to 160 °C

Batch of 3 compounds: report melting point for each.
1. N#CC(C(=O)N1CCOCC1)=C1Nc2ccccc2O1
2. COc1ccc(C(C)=O)cc1C(F)(F)F
3. CCCN(CCC)Cc1nnc(-c2ncn3c2[C@@H]2CCCN2C(=O)c2c(Cl)cccc2-3)o1

[reply]
1: 217 to 219 °C; 2: 56 to 57 °C; 3: 158 to 160 °C

Batch of 4 compounds: report melting point for each.
1. Cc1nnc(-c2ccc3occ(-c4ccc(C=O)c(F)c4)c3c2)o1
2. CC(=O)OC1C(CO)OC(n2cnc3c(N)ncnc32)C1OC(C)=O (stereo not drawn)
3. O=C(O)c1cn(-c2cnsn2)c2nc(Cl)c(F)cc2c1=O
4. COc1nc(-c2ccc(F)cc2)nc(-c2ccccn2)n1

[reply]
1. 207 to 208 °C
2. 138 to 139 °C
3. 222 to 223 °C
4. > 270 °C

----------
readout.label: melting point

Recorded results for 3 compounds are shown here.
In [3]: df
Out[3]:
                                   compound  readout_label       meas_value
0                  Cn1nc([N+](=O)[O-])nc1Br  melting point  90.5 to 91.5 °C
1  Cc1ccnc(C(O)c2ccc(N)cc2C(F)(F)F)c1 (configuration not stated)  melting point    120 to 123 °C
2     Cc1nc(C)c(Cl)c(NCc2nccc(CNCCO)c2Cl)n1  melting point    162 to 165 °C

Batch of 7 compounds: report melting point for each.
1. O=C(O)C(=O)c1ccc(OCCOc2ccccc2)cc1
2. COc1ccc(/C=C/C(=O)/C=C/c2ccc(OC(F)(F)F)cc2)cc1
3. CCCOc1ccc(C#N)cc1-c1ccc(C#N)c(=O)[nH]1
4. CN(CCCC(C(N)=O)(c1ccccc1)c1ccccc1)CCc1ccc2c(c1)OCO2
5. CCOCCCOc1ccc(-c2ccc3c(c2)C=C(C(=O)OC)CCN3S(C)(=O)=O)cc1
6. N#Cc1c(-c2ccccc2)[nH]c(Cl)c1Cl
7. CCCCc1oc2ccccc2c1C(=O)Nc1ccc(-c2ccc(OCC#N)cc2)cc1

[reply]
102 to 103 °C
105 to 107 °C
248 to 251 °C
89 to 90 °C
127 to 129 °C
254 to 255 °C
143 to 144 °C
